Tested on: LXFL 529
procedure_summary: NCI tumour cell line growth inhibition, 48 h
The source made the active and inactive calls. Rule as the data show it: active = GI50 up to about 1.1 µM and inactive = higher.
assay_readout: GI50

Field: example entries. Status: answers known.
{"columns": ["compound", "assay_readout", "meas_value"],
 "data": [
  ["O=C(NC1C(=O)NNC1c1cccc([N+](=O)[O-])c1)c1ccccc1 (configuration not stated)", "GI50", "> 100 µM (inactive)"],
  ["COC(=O)c1ncc2c(=O)[nH]c3ccccc3c2c1C(=O)OC", "GI50", "> 100 µM (inactive)"],
  ["Cc1ccc(OCC(=O)N2N=C(c3ccccc3)CC2(O)c2ccccc2)cc1 (configuration not stated)", "GI50", "19.3 µM (inactive)"],
  ["CCOC(=O)C1C(=O)CN2CCc3c([nH]c4ccccc34)C12C(=O)OCC (configuration not stated)", "GI50", "> 100 µM (inactive)"],
  ["CN(C)CC(/C(Cc1ccccc1)=N\\NC(=O)C[n+]1ccccc1)c1ccccc1 (configuration not stated)", "GI50", "> 100 µM (inactive)"]
]}

Sample NC(=S)N/N=C/C(O[C@@H](/C=N/NC(N)=S)CO)n1cnc2c(N)ncnc21 (some centres not stated) , system: LXFL 529. Its GI50 is > 78.2 µM (inactive)

Sample CN(C)C(=O)/N=c1\ss/c(=N\C(=S)N(C)C)n1-c1ccccc1 , system: LXFL 529. Its GI50 is 7.55 µM (inactive)

###

Test system: UACC-257
procedure_summary: NCI tumour cell line growth inhibition, 48 h
Activity calls are given as the source filed them. Cut-off read from the data, not from the text of the source: active = GI50 up to about 1.1 µM and inactive = higher.
assay_readout: GI50

Field: example entries. Status: answers known.
{"columns": ["structure", "GI50"],
 "data": [
  ["O=C(NCCOC(=O)CCCCCCCCC(=O)OCCNC(=O)NC(=O)c1cn(Cc2ccccc2)c(=O)[nH]c1=O)NC(=O)c1cn(Cc2ccccc2)c(=O)[nH]c1=O", "> 100 µM (inactive)"],
  ["Cc1cc(NS(=O)(=O)c2ccc(Nc3c4ccccc4nc4c(C(=O)NCCO)cccc34)cc2)no1", "75.3 µM (inactive)"],
  ["CC(=O)N1C/C(=C\\c2ccccc2)C(=O)/C(=C/c2ccccc2)C1", "6.9 µM (inactive)"]
]}

Now consider the entry below.
Record summary for C#CCN(Cc1ccc2nc(-c3ccccc3)c(Cl)nc2c1)c1ccc(Cl)c(Cl)c1 : reported GI50 = > 100 µM (inactive)

###

Test system: UACC-62
procedure_summary: NCI tumour cell line growth inhibition, 48 h
The source made the active and inactive calls. No stated cut-off is given here; in the data, active = GI50 up to about 1.1 µM and inactive = higher.
Log the outcome using a class from active, inactive

{"columns": ["compound", "category"],
 "data": [
  ["CCc1nc(N)nc(N)c1-c1ccc(Cl)c(Cl)c1 [ETOPRINE]", "active"],
  ["CC(C)(/N=N/C(C)(C)C(=O)NCCO)C(=O)NCCO", "inactive"],
  ["O=c1cc(NNc2ccccc2)[nH]c(=O)[nH]1", "inactive"],
  ["Cc1c2c(n(CCN(C)C)c1C)NN=C(C#N)S2(=O)=O", "inactive"],
  ["CSC1=Nc2ccccc2N(C)c2c1c(-c1ccccc1)nn2C", "inactive"]
]}

Prompt: Tell me the assay call for CCOCN1COCN/C1=N/C#N please.
Completion: inactive

Prompt: Tell me the assay call for CC(=O)c1nccc2c1c(C)nc1ccccc12 please.
Completion: inactive

Prompt: Tell me the assay call for Nc1nc(=O)n(C2CC(O)C(O)C(CO)O2)cc1F (stereo unspecified) please.
Completion: inactive

Prompt: Tell me the assay call for CC1/C(=N\O)CC(c2ccccc2)N(C)C1c1ccccc1 (stereo unspecified) please.
Completion: inactive

Prompt: Tell me the assay call for Cc1[nH]c2c(c1Cc1ccccc1)C1=NC=C(O)NN1C=N2 please.
Completion: inactive

Prompt: Tell me the assay call for C[C@]12CC[C@H](O[C@@H]3O[C@H](CO[C@@H]4O[C@H](CO)[C@@H](O)[C@H](O)[C@H]4O)[C@@H](O)[C@H](O)[C@H]3O)C[C@@H]1CC[C@@H]1[C@@H]2CC[C@]2(C)[C@@H](C3=CC(=O)OC3)CC[C@]12O [UZARIN] please.
Completion: inactive

Prompt: Tell me the assay call for CC[C@@H]1CN(C)[C@H]2Cc3c([nH]c4ccccc34)C(=O)C[C@H]1C2C(=O)OC (stereo partly specified) please.
Completion: inactive

Prompt: Tell me the assay call for CN(C(=O)Cc1cc(Cl)c(Cl)cc1NC(=O)CCCN)[C@H]1CCCC[C@@H]1N1CCCC1 please.
Completion: inactive
